From: PubChem BioAssay (NCATS)

- test: Primary qHTS for inhibitors of nuclear receptor binding SET domain protein 2 (NSD2) in an RCH-ACV wild type WT cells (2C) (AID 1645877); also: nearly all actives have a fitted effect of over 70% in size
- condition-context: RCH-ACV (leukaemia line) NSD2 WT (2C) viability, CellTiter-Glo, 72 h; series mostly up to 44.9 µM
Inconclusive results are not listed. Activity calls are given as the source filed them. Calls follow the shape of the dose curve; as a rule, active = well fitted inhibition curve with a large enough effect; inconclusive = small, poorly fitted or top-dose-only effect; inactive = no such curve, though single readings can be large or run the other way.
Outcome codes: active, inactive

>>> discrete_label("C[C@H]1c2cccc(O)c2C(O)=C2C(=O)[C@]3(O)C(O)=C(C(N)=O)C(=O)[C@@H](N(C)C)[C@@H]3[C@@H](O)[C@@H]21")
"active"
>>> discrete_label("COc1ccc2[nH]cc(CCNC(C)=O)c2c1")
"inactive"
>>> discrete_label("CC[N+](CC)(CC)CCOc1cccc(OCC[N+](CC)(CC)CC)c1OCC[N+](CC)(CC)CC")
"inactive"
>>> discrete_label("COc1ccc(C2CNC(=O)C2)cc1OC1CCCC1 (stereo unspecified)")
"inactive"
>>> discrete_label("OCCN1CCN(CCCN2c3ccccc3Sc3ccc(C(F)(F)F)cc32)CC1")
"active"
>>> discrete_label("Clc1ccc(C(c2ccccc2Cl)C(Cl)Cl)cc1 (stereo unspecified)")
"inactive"
>>> discrete_label("N[C@@H](Cc1c[nH]c2ccc(O)cc12)C(=O)O")
"inactive"
>>> discrete_label("NC(=O)NO")
"inactive"
>>> discrete_label("Cc1cc(C(C)(C)C)c(O)c(C)c1CC1=NCCN1")
"inactive"
>>> discrete_label("Clc1ccc2nsnc2c1NC1=NCCN1")
"inactive"
>>> discrete_label("CC(=O)OCC(CCn1cnc2cnc(N)nc21)COC(C)=O")
"inactive"
